- method summary: Extrapolated human dosimetry (OLINDA/EXM, ICRP-89 phantoms)
- condition set: ICRP 89 Adult Female, extrapolated
observable: Absorbed dose (AD average) Heart Wall (mGy/Mbq)
A number alone suffices; assume mGy/Mbq.

Reported Absorbed dose (AD average) Heart Wall of N#C[C@@H]1CC(F)(F)CN1C(=O)CNC(=O)c1ccnc2ccc(OCCCCNC(=O)CC[C@H](NC(=O)CCC(C(=O)O)N3CCN(CC(=O)[O-])CCN(CC(=O)[O-])CCN(CC(=O)[O-])CC3)C(=O)NCCCCOc3ccc4nccc(C(=O)NCC(=O)N5CC(F)(F)C[C@H]5C#N)c4c3)cc12.[177Lu+3] (stereo partly shown) [[^177Lu]Lu-DOTAGA.Glu.(FAPI)2] : 4.42E-02
